The reported numbers originate from paper PMC7725003.

# Test system: E. coli O78
# Format: cell-based, Escherichia coli
# Experimental parameters: O78, 24 h
Where no end group is shown, it is not given here.

Substance: RLRLRLRLL-NH2 [L5]
Reported relation: =
MIC, µM: 2

Substance: LLRLRRRLL-NH2 [L2]
Reported relation: =
MIC, µM: 8

Substance: WWRWRRRWW-NH2 [W2]
Reported relation: =
MIC, µM: 8

Substance: WRRRWWWWR-NH2 [W6]
Reported relation: =
MIC, µM: 4

Substance: LLLRRRRLL-NH2 [L4]
Reported relation: >
MIC, µM: 64

Substance: LRRLRLRLL-NH2 [L3]
Reported relation: =
MIC, µM: 16

Substance: WRRWRWRWW-NH2 [W3]
Reported relation: =
MIC, µM: 4

====

Item-by-item account of MIC, NH4Cl
# Tested on: S. aureus 29213
# Assay details: Salt sensitivity assay (MIC)
# Type: cell-based, Staphylococcus aureus
# Experimental parameters: 6 μM NH4Cl
Where no end group is shown, it is not given here.

Substance: RRWWWRWRW-NH2 [W8]
Target: S. aureus 29213
Reported relation: =
MIC, NH4Cl / µM: 4

Substance: RRWWWWRRW-NH2 [W7]
Target: S. aureus 29213
Reported relation: =
MIC, NH4Cl / µM: 4

Substance: WRRRWWWWR-NH2 [W6]
Target: S. aureus 29213
Reported relation: =
MIC, NH4Cl / µM: 2

Substance: RRLLLRLRL-NH2 [L8]
Target: S. aureus 29213
Reported relation: =
MIC, NH4Cl / µM: 32

Substance: WWRWRRRWW-NH2 [W2]
Target: S. aureus 29213
Reported relation: =
MIC, NH4Cl / µM: 2

Substance: LRRRRLLLL-NH2 [L11]
Target: S. aureus 29213
Reported relation: >
MIC, NH4Cl / µM: 64

Substance: WWRWWRRRW-NH2 [W1]
Target: S. aureus 29213
Reported relation: =
MIC, NH4Cl / µM: 2

====

# Test system: E. coli UB1005
# Assay type: cell-based, Escherichia coli
# Experimental parameters: UB1005, 24 h
Where no end group is shown, it is not given here.

Substance: WRRRWWWWR-NH2 [W6]
Reported relation: =
MIC / µM: 4
--
Substance: LRRLRLRLL-NH2 [L3]
Reported relation: =
MIC / µM: 16
--
Substance: RWRWRWRWW-NH2 [W5]
Reported relation: =
MIC / µM: 2
--
Substance: RLRLRRLLL-NH2 [L9]
Reported relation: =
MIC / µM: 64
--
Substance: LLLRRRRLL-NH2 [L4]
Reported relation: >
MIC / µM: 64
--
Substance: WWRWWRRRW-NH2 [W1]
Reported relation: =
MIC / µM: 4
--
Substance: LLRLRRRLL-NH2 [L2]
Reported relation: =
MIC / µM: 16

====

substances and their reported MIC, NH4Cl
# Test system: S. aureus 29213
# Assay details: Salt sensitivity assay (MIC)
# Type: cell-based, Staphylococcus aureus
# Experimental parameters: 6 μM NH4Cl
Where no end group is shown, it is not given here.

Substance: RWRWRWRWW-NH2 [W5]
Reported relation: =
MIC, NH4Cl [µM]: 2
//
Substance: RLLLLRRLR-NH2 [L10]
Reported relation: >
MIC, NH4Cl [µM]: 64
//
Substance: WRRWRWWRW-NH2 [W12]
Reported relation: =
MIC, NH4Cl [µM]: 2
//
Substance: LRRLRLRLL-NH2 [L3]
Reported relation: >
MIC, NH4Cl [µM]: 64
//
Substance: LRRRLLLLR-NH2 [L6]
Reported relation: >
MIC, NH4Cl [µM]: 64
//
Substance: RWRWRRWWW-NH2 [W9]
Reported relation: =
MIC, NH4Cl [µM]: 2
//
Substance: WWWRRRRWW-NH2 [W4]
Reported relation: =
MIC, NH4Cl [µM]: 1
//
Substance: RLRLRRLLL-NH2 [L9]
Reported relation: >
MIC, NH4Cl [µM]: 64
//
Substance: LLRLRRRLL-NH2 [L2]
Reported relation: >
MIC, NH4Cl [µM]: 64
//
Substance: LLLRRRRLL-NH2 [L4]
Reported relation: >
MIC, NH4Cl [µM]: 64
//
Substance: LLRLLRRRL-NH2 [L1]
Reported relation: =
MIC, NH4Cl [µM]: 64
//
Substance: RRLLLLRRL-NH2 [L7]
Reported relation: >
MIC, NH4Cl [µM]: 64
//
Substance: LRRLRLLRL-NH2 [L12]
Reported relation: >
MIC, NH4Cl [µM]: 64
//
Substance: RWWWWRRWR-NH2 [W10]
Reported relation: =
MIC, NH4Cl [µM]: 1
//
Substance: WRRWRWRWW-NH2 [W3]
Reported relation: =
MIC, NH4Cl [µM]: 8
//
Substance: RLRLRLRLL-NH2 [L5]
Reported relation: =
MIC, NH4Cl [µM]: 8
//
Substance: WRRRRWWWW-NH2 [W11]
Reported relation: =
MIC, NH4Cl [µM]: 1

====

Quick list: MIC, ZnCl2 per entry.
# Tested on: S. aureus 29213
# Assay details: Salt sensitivity assay (MIC)
# Type: cell-based, Staphylococcus aureus
# Experimental parameters: 8 μM ZnCl2
Where no end group is shown, it is not given here.

Substance: RRLLLRLRL-NH2 [L8]
Target: S. aureus 29213
Reported relation: =
MIC, ZnCl2 / µM: 32
//
Substance: RLLLLRRLR-NH2 [L10]
Target: S. aureus 29213
Reported relation: >
MIC, ZnCl2 / µM: 64
//
Substance: RRWWWWRRW-NH2 [W7]
Target: S. aureus 29213
Reported relation: =
MIC, ZnCl2 / µM: 4
//
Substance: RLRLRRLLL-NH2 [L9]
Target: S. aureus 29213
Reported relation: >
MIC, ZnCl2 / µM: 64
//
Substance: WRRRRWWWW-NH2 [W11]
Target: S. aureus 29213
Reported relation: =
MIC, ZnCl2 / µM: 2
//
Substance: WWRWRRRWW-NH2 [W2]
Target: S. aureus 29213
Reported relation: =
MIC, ZnCl2 / µM: 4
//
Substance: LRRRRLLLL-NH2 [L11]
Target: S. aureus 29213
Reported relation: >
MIC, ZnCl2 / µM: 64
//
Substance: LRRLRLLRL-NH2 [L12]
Target: S. aureus 29213
Reported relation: >
MIC, ZnCl2 / µM: 64
//
Substance: RWWWWRRWR-NH2 [W10]
Target: S. aureus 29213
Reported relation: =
MIC, ZnCl2 / µM: 1
//
Substance: RWRWRWRWW-NH2 [W5]
Target: S. aureus 29213
Reported relation: =
MIC, ZnCl2 / µM: 2
//
Substance: RRLLLLRRL-NH2 [L7]
Target: S. aureus 29213
Reported relation: >
MIC, ZnCl2 / µM: 64
//
Substance: WWWRRRRWW-NH2 [W4]
Target: S. aureus 29213
Reported relation: =
MIC, ZnCl2 / µM: 1
//
Substance: RWRWRRWWW-NH2 [W9]
Target: S. aureus 29213
Reported relation: =
MIC, ZnCl2 / µM: 2
//
Substance: WRRWRWWRW-NH2 [W12]
Target: S. aureus 29213
Reported relation: =
MIC, ZnCl2 / µM: 2
//
Substance: LRRRLLLLR-NH2 [L6]
Target: S. aureus 29213
Reported relation: >
MIC, ZnCl2 / µM: 64
//
Substance: LLRLRRRLL-NH2 [L2]
Target: S. aureus 29213
Reported relation: >
MIC, ZnCl2 / µM: 64
//
Substance: RLRLRLRLL-NH2 [L5]
Target: S. aureus 29213
Reported relation: =
MIC, ZnCl2 / µM: 8
//
Substance: RRWWWRWRW-NH2 [W8]
Target: S. aureus 29213
Reported relation: =
MIC, ZnCl2 / µM: 4
//
Substance: LLLRRRRLL-NH2 [L4]
Target: S. aureus 29213
Reported relation: >
MIC, ZnCl2 / µM: 64
//
Substance: WRRRWWWWR-NH2 [W6]
Target: S. aureus 29213
Reported relation: =
MIC, ZnCl2 / µM: 2
//
Substance: LLRLLRRRL-NH2 [L1]
Target: S. aureus 29213
Reported relation: =
MIC, ZnCl2 / µM: 64
//
Substance: WWRWWRRRW-NH2 [W1]
Target: S. aureus 29213
Reported relation: =
MIC, ZnCl2 / µM: 2
//
Substance: LRRLRLRLL-NH2 [L3]
Target: S. aureus 29213
Reported relation: >
MIC, ZnCl2 / µM: 64
//
Substance: WRRWRWRWW-NH2 [W3]
Target: S. aureus 29213
Reported relation: =
MIC, ZnCl2 / µM: 4
